# assayed-system: Glutamate receptor ionotropic, NMDA 2B (Homo sapiens, UniProt Q05586+Q13224)
# Sequence (Q13224 whole entry, one chain of several): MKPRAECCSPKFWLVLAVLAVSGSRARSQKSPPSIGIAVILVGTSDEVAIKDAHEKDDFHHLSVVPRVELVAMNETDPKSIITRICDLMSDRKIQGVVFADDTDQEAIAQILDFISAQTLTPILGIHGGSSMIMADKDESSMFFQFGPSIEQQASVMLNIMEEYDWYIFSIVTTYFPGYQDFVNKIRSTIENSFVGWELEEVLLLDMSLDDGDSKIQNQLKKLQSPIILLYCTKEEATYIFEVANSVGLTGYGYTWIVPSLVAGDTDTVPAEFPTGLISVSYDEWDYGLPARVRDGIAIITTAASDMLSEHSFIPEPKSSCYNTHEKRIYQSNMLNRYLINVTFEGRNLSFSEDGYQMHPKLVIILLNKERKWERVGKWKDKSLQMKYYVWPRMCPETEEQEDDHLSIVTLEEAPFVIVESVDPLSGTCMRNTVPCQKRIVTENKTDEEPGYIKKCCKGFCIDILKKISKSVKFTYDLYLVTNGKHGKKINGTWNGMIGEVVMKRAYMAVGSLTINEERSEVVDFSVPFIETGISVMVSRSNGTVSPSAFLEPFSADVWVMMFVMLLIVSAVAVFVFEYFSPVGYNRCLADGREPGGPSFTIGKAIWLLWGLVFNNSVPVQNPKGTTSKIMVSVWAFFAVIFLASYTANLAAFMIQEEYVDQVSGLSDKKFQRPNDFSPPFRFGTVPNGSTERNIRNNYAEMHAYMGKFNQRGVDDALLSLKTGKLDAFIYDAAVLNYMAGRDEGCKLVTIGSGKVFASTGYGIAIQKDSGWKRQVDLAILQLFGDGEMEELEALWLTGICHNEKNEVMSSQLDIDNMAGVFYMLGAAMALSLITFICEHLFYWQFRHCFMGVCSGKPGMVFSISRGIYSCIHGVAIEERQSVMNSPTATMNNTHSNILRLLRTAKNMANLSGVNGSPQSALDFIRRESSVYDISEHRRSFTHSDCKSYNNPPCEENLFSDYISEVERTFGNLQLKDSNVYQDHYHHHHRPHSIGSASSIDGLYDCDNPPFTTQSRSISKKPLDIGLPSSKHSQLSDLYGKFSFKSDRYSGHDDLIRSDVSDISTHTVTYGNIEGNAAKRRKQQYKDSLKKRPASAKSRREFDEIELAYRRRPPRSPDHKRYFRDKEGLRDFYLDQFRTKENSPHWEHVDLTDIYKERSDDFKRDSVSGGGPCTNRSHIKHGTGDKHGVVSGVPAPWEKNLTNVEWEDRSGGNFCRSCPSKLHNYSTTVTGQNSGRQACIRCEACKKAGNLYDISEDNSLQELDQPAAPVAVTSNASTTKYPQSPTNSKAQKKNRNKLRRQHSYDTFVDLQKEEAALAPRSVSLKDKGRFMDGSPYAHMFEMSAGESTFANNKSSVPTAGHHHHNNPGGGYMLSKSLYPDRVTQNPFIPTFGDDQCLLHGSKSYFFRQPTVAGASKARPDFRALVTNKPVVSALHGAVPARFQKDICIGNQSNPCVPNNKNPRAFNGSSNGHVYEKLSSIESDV
# assay-name: Standard cell-based calcium flux assay: NMDA receptors are ion channels that are highly permeable to Ca2+ ions, rendering it possible to monitor NMDA receptor function using cell-based calcium flux assay. In this assay, co-agonists glutamate and glycine are added to cells heterologously expressing human GluN1/GluN2B NMDA receptors to initiate cellular Ca2+ influx. The time course of the changes in intracellular calcium is measured using a fluorescent dye and a FLIPR (Fluorometric Imaging Plate Reader) device.Twenty four hours before measurements, the expression of the NMDA receptors in the stable cell line is induced with Tet-On inducible system in the presence of a non-selective NMDA receptor blocker. On the day of the experiment, cell culture media is carefully washed and the cells are loaded with Calcium 5 Dye Kit (Molecular Devices) in dye loading buffer containing 137 mM NaCl, 4 mM KCl, 2 mM CaCl2, 0.5 mM MgCl2 (standard assay) or 1.5 mM MgCl2 (HTS assay), 10 mM HEPES and 5 mM D-glucose; pH 7.4. After 1 h incubation at the room temperature, the dye is washed away with the assay buffer (137 mM NaCl (standard assay) or 150 mM (HTS assay), 4 mM KCl (standard assay) or 3 mM (HTS assay), 2 mM CaCl2, 0.01 mM EDTA, 10 mM HEPES and 5 mM D-glucose; pH 7.4) In the FLIPR TETRA reader, various concentrations of the test compounds are added to the cells for 5 min while fluorescence is monitored to detect potential agonist activity. Next, co-agonists, glutamate and glycine are added for another 5 minutes. The concentration of glutamate corresponding to ˜EC40 (standard assay) is used to maximize the assay's signal window and ability to detect NMDA receptor antagonists and negative allosteric modulators. A saturating concentration (10 μM) of glycine is also present in the assay. A non-selective NMDA receptor antagonist, (+)MK-801 is used as a positive control for antagonist activity. The fluorescent signal in the presence of test compounds is quantified and normalized to the signal defined by the appropriate control wells.
parameter: IC50 (nM)
Give bare numbers, in nM.

In plain terms, `Cn1c(=O)n(CC(=O)N2CCC2)c2cc(-c3cc(OCCF)cc(C(F)(F)F)c3)cnc21` has a documented IC50 of 1290
